- measurement_target: human ENT1 (Homo sapiens, UniProt Q99808)
- Construct: JAR cells expressing ENT1 were purchased from ATCC; host or cells: JAR cells
- assay_method_text: ENT1 binding assay (competition with Sahenta-DY647 on JAR cells)
- protocol_conditions: competition with SAHENTA-DY647 binding; IC50 categorized; read-out: Binding Assay IC50
pIC50: −log10 of the molar value.
readout: pIC50

Examples with their reported pIC50 follow.
molecule: Cc1cc(C)c(COc2ncnc3c2ncn3[C@@H]2O[C@H](C)[C@@H](O)[C@H]2O)c(C)c1
measurement_target: human ENT1 (Homo sapiens, UniProt Q99808)
pIC50: < 6.30
//
molecule: C[C@H]1O[C@@H](n2cnc3c(C(=O)NCc4ccc(C#N)c(F)c4)ncnc32)[C@H](O)[C@@H]1O
measurement_target: human ENT1 (Homo sapiens, UniProt Q99808)
pIC50: < 6.30

Could I get pIC50 for every one of these entries?
1. C[C@H]1O[C@@H](n2cnc3c(OCCc4ccc(C#N)c(F)c4)ncnc32)[C@H](O)[C@@H]1O
2. C[C@H]1O[C@@H](n2c(NC3CCOC3)nc3c(OCc4ccc([N+](=O)[O-])cc4)ncnc32)[C@H](O)[C@@H]1O (some centres unmarked)
3. CCNc1nc2c(OCc3ccc([N+](=O)[O-])cc3)ncnc2n1[C@@H]1O[C@H](C)[C@@H](O)[C@H]1O
4. C[C@H]1O[C@@H](n2c(NCC3CCOCC3)nc3c(OCc4ccc(C#N)cc4)ncnc32)[C@H](O)[C@@H]1O
5. C[C@H]1O[C@@H](n2c(NC3CCS(=O)(=O)CC3)nc3c(N4CCc5ccccc5C4)ncnc32)[C@H](O)[C@@H]1O
6. C[C@H]1O[C@@H](n2cnc3c(OCCc4ccc(S(C)(=O)=O)cc4)ncnc32)[C@H](O)[C@@H]1O
7. C[C@H]1O[C@@H](n2c(NCCCS(C)(=O)=O)nc3c(OCc4ccc(OC(F)F)cc4)ncnc32)[C@H](O)[C@@H]1O
8. C[C@H]1O[C@@H](n2c(NCC3COC3)nc3c(OCc4ccc(C#N)cc4)ncnc32)[C@H](O)[C@@H]1O

1: < 6.30; 2: 7.70 to 9.00; 3: 7.70 to 9.00; 4: 7.70 to 9.00; 5: 6.30 to 7.70; 6: < 6.30; 7: 7.70 to 9.00; 8: 6.30 to 7.70

----------
- measurement_target: human ENT1 (Homo sapiens)
- Construct: JAR cells expressing ENT1 were purchased from ATCC; host or cells: JAR cells
- assay_method_text: ENT1 binding assay (competition with Sahenta-DY647 on JAR cells)
- protocol_conditions: competition with SAHENTA-DY647 binding; IC50 categorized; read-out: Binding Assay IC50
pIC50: −log10 of the molar value.
readout: pIC50

Examples with their reported pIC50 follow.
molecule: C[C@H]1O[C@@H](n2cnc3c(SCc4nc(-c5ccc(F)cc5)no4)ncnc32)[C@H](O)[C@@H]1O
pIC50: < 6.30

molecule: C[C@H]1O[C@@H](n2cnc3c(OCc4ccc(N5CCCC5)cc4)ncnc32)[C@H](O)[C@@H]1O
pIC50: < 6.30

molecule: Cc1ccc2nc(CSc3ncnc4c3ncn4[C@@H]3O[C@H](C)[C@@H](O)[C@H]3O)cn2c1
pIC50: < 6.30

Could I get pIC50 for every one of these entries?
1. CNc1ccccc1COc1ncnc2c1ncn2[C@@H]1O[C@H](C)[C@@H](O)[C@H]1O
2. C[C@H]1O[C@@H](n2c(NCCCO)nc3c(OCc4ccc(OC(F)F)cc4)ncnc32)[C@H](O)[C@@H]1O
3. CC1OC(n2c(NC3CC(C)(O)C3)nc3c(N4CCc5ccc([N+](=O)[O-])cc5C4)ncnc32)C(O)C1O (single isomer, unassigned) [Compound 141]
4. Cc1cn(C2OC(C)C(O)C2O)c2ncnc(SCc3ccc([N+](=O)[O-])cc3)c12 (single isomer, unassigned) [Compound 286]

["< 6.30", "7.70 to 9.00", "> 9.00", "< 6.30"]

----------
- measurement_target: human ENT1 (Homo sapiens, UniProt Q99808)
- Construct: JAR cells expressing ENT1 were purchased from ATCC; host or cells: JAR cells
- assay_method_text: ENT1 binding assay (competition with Sahenta-DY647 on JAR cells)
- protocol_conditions: competition with SAHENTA-DY647 binding; IC50 categorized; read-out: Binding Assay IC50
readout: IC50

compound: CC1OC(n2c(NC3CC(C)(O)C3)nc3c(N4CCc5ccc([N+](=O)[O-])cc5C4)ncnc32)C(O)C1O (single isomer, unassigned) [Compound 137]
result: < 0.001 µM
//
compound: C[C@H]1O[C@@H](n2c(NCCCS(C)(=O)=O)nc3c(OCc4ccc([N+](=O)[O-])cc4)ncnc32)[C@H](O)[C@@H]1O
result: 0.001 to 0.02 µM
//
compound: C[C@H]1O[C@@H](n2cnc3c(OCc4ccc([N+](=O)[O-])cc4)ncnc32)[C@H](O)[C@@H]1O
result: 0.02 to 0.5 µM
//
compound: C[C@H]1O[C@@H](n2cnc3c(C(=O)NCc4ccc([N+](=O)[O-])cc4)ncnc32)[C@H](O)[C@@H]1O
result: > 0.5 µM

Could I get IC50 for every one of these entries?
1. C[C@H]1O[C@@H](n2cnc3c(NCc4ccc(S(N)(=O)=O)cc4)ncnc32)[C@H](O)[C@@H]1O
2. C[C@H]1O[C@@H](n2cnc3c(NCc4ccc5ncccc5c4)ncnc32)[C@H](O)[C@@H]1O
3. C[C@H]1O[C@@H](n2c(NC3CCCC3)nc3c(OCc4ccc(C(F)F)nc4)ncnc32)[C@H](O)[C@@H]1O
4. C[C@H]1O[C@@H](n2cnc3c(SCc4ccc(S(=O)(=O)N5CCCC5)cc4)ncnc32)[C@H](O)[C@@H]1O
5. C[C@H]1O[C@@H](n2cnc3c(COc4ccc(OC(F)(F)F)cc4)ncnc32)[C@H](O)[C@@H]1O
6. C[C@H]1O[C@@H](n2cnc3c(OCc4ccc(-n5ccnc5)cc4)ncnc32)[C@H](O)[C@@H]1O

1. > 0.5 µM
2. > 0.5 µM
3. 0.001 to 0.02 µM
4. > 0.5 µM
5. > 0.5 µM
6. > 0.5 µM

Could I get IC50 for every one of these entries?
1. Cc1nc(OCc2ccc([N+](=O)[O-])cc2)c2ncn([C@@H]3O[C@H](C)[C@@H](O)[C@H]3O)c2n1
2. C[C@H]1O[C@@H](n2cnc3c(OCc4ccc(C5CC5)cc4)ncnc32)[C@H](O)[C@@H]1O
3. OC[C@H]1O[C@@H](n2c(NC3CCCC3)nc3c(SCc4ccccc4)ncnc32)[C@H](O)[C@@H]1O
4. C[C@H]1O[C@@H](n2c(O)nc3c(OCc4ccc([N+](=O)[O-])cc4)ncnc32)[C@H](O)[C@@H]1O

> 0.5 µM
0.02 to 0.5 µM
0.001 to 0.02 µM
> 0.5 µM

----------
- measurement_target: human ENT1 (Homo sapiens, UniProt Q99808)
- Construct: JAR cells expressing ENT1 were purchased from ATCC; host or cells: JAR cells
- assay_method_text: ENT1 binding assay (competition with Sahenta-DY647 on JAR cells)
- protocol_conditions: competition with SAHENTA-DY647 binding; IC50 categorized; read-out: Binding Assay IC50
pIC50: −log10 of the molar value.
Record form. Attribute: pIC50. Fill in for each entry.

Could I get pIC50 for every one of these entries?
1. C[C@H]1O[C@@H](n2c(NC3CC3)nc3c(OCc4ccc(C#N)cc4)ncnc32)[C@H](O)[C@@H]1O
2. Cc1cccc(C)c1CNc1ncnc2c1ncn2[C@@H]1O[C@H](C)[C@@H](O)[C@H]1O
3. C[C@H]1O[C@@H](n2cnc3c(OCCc4cc(F)c(C#N)c(F)c4)ncnc32)[C@H](O)[C@@H]1O
4. C[C@H]1O[C@@H](n2c(NCC3CCC(F)(F)C3)nc3c(OCc4ccc(OC(F)F)nc4)ncnc32)[C@H](O)[C@@H]1O (stereo partly shown)
5. CC1OC(n2c(NC3CCC(C)(O)CC3)nc3c(OCc4ccc([N+](=O)[O-])cc4)ncnc32)C(O)C1O (single isomer, unassigned) [Compound 118]
6. C[C@H]1O[C@@H](n2cnc3c(OCc4c(F)cc(F)cc4F)ncnc32)[C@H](O)[C@@H]1O
7. C[C@H]1O[C@@H](n2cnc3c(C(=O)NCc4ccc(OC(F)(F)F)cc4)ncnc32)[C@H](O)[C@@H]1O

7.70 to 9.00
< 6.30
< 6.30
7.70 to 9.00
7.70 to 9.00
< 6.30
< 6.30

----------
- measurement_target: human ENT1 (Homo sapiens)
- Construct: JAR cells expressing ENT1 were purchased from ATCC; host or cells: JAR cells
- Sequence (Q99808 1-456): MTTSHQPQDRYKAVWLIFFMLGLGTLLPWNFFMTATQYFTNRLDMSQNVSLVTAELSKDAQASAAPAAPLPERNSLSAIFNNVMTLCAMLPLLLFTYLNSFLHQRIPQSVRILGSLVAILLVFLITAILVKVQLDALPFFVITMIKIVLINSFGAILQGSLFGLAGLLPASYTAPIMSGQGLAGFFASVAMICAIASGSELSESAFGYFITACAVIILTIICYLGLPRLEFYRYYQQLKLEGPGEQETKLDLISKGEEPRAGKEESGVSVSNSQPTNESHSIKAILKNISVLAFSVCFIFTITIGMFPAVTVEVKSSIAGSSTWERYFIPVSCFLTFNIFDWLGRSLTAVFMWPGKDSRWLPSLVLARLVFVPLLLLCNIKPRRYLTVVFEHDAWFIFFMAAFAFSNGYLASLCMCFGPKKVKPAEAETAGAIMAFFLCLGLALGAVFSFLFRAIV
- assay_method_text: ENT1 binding assay (competition with Sahenta-DY647 on JAR cells)
- protocol_conditions: competition with SAHENTA-DY647 binding; IC50 categorized; read-out: Binding Assay IC50
readout: IC50

Examples with their reported IC50 follow.
molecule: C[C@H]1O[C@@H](n2c(N[C@@H]3CCC(F)(F)C3)nc3c(OCc4ccc(C#N)cc4)ncnc32)[C@H](O)[C@@H]1O
IC50: < 1 nM

molecule: C[C@H]1O[C@@H](n2c(N[C@H]3C[C@](C)(O)C3)nc3c(OCc4ccc(OC(F)F)cc4)ncnc32)[C@H](O)[C@@H]1O
IC50: < 1 nM

molecule: Cc1cc(CSc2ncnc3c2ncn3[C@@H]2O[C@H](C)[C@@H](O)[C@H]2O)cc(C)c1F
IC50: > 500 nM

molecule: C[C@H]1O[C@@H](n2cnc3c(=O)n(Cc4ccc([N+](=O)[O-])cc4)ccc32)[C@H](O)[C@@H]1O
IC50: > 500 nM

molecule: CC(Oc1ncnc2c1ncn2[C@@H]1O[C@H](C)[C@@H](O)[C@H]1O)c1ccc(OC(F)F)cc1 (some centres unmarked)
IC50: > 500 nM

molecule: COc1ccc(COc2ncnc3c2ncn3[C@@H]2O[C@H](C)[C@@H](O)[C@H]2O)cc1C(F)(F)F
IC50: > 500 nM

molecule: C[C@H]1O[C@@H](n2c(NCCN3CCCC3)nc3c(OCc4ccc([N+](=O)[O-])cc4)ncnc32)[C@H](O)[C@@H]1O
IC50: 20 to 500 nM

molecule: C[C@H]1O[C@@H](n2cnc3c(OCc4cc(Cl)cc(Cl)c4)ncnc32)[C@H](O)[C@@H]1O
IC50: 20 to 500 nM

Could I get IC50 for every one of these entries?
1. C[C@H]1O[C@@H](n2cnc3c(C(=O)NCc4ccc(OC(F)F)cc4)ncnc32)[C@H](O)[C@@H]1O
2. C[C@H]1O[C@@H](n2cnc3c(NCc4cccc(C(=O)N(C)C)c4)ncnc32)[C@H](O)[C@@H]1O
3. C[C@H]1O[C@@H](n2c(N(C)C3CCCC3)nc3c(OCc4ccc([N+](=O)[O-])cc4)ncnc32)[C@H](O)[C@@H]1O
4. Cc1cc2cc(CNc3ncnc4c3ncn4[C@@H]3O[C@H](C)[C@@H](O)[C@H]3O)ccc2[nH]1
5. C[C@H]1O[C@@H](n2cnc3c(-c4nc(-c5ccc([N+](=O)[O-])cc5)no4)ncnc32)[C@H](O)[C@@H]1O
6. C[C@H]1O[C@@H](n2cnc3c(NCc4cccc(C(F)F)c4)ncnc32)[C@H](O)[C@@H]1O

1: > 500 nM; 2: > 500 nM; 3: > 500 nM; 4: > 500 nM; 5: > 500 nM; 6: > 500 nM
